Molecular target: T1, thermostable variant of Streptomyces mobaraensis transglutaminase (Streptomyces mobaraensis, UniProt P81453 79-407)
T1 sequence: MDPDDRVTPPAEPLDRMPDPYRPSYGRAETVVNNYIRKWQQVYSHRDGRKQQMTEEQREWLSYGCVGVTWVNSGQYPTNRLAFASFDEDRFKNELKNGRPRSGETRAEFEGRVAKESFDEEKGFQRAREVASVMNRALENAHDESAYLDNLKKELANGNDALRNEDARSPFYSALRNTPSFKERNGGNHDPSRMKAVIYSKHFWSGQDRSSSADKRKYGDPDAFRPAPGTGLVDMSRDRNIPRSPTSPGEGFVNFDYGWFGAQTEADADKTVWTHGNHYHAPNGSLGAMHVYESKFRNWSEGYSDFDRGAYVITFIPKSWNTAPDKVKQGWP
Experiment: cell-based or functional assay
In this section, each of the binders is paired with its reported Improvement in binding affinity of inhibitory peptide relative to WT.

MDNGAGEITKSYAETYRLTADDVANINALNESAPAASSAGPSFRAP [pro-peptide variant E8I] :: > 1.2 fold
MDNGAGHETKSYAETYRLTADDVANINALNESAPAASSAGPSFRAP [pro-peptide variant E7H] :: > 1.2 fold

Then this binder:
Provide one value: measured Improvement in binding affinity of inhibitory peptide relative to WT of MDNGAGEETKSYAEDYRLTADDVANINALNESAPAASSAGPSFRAP [pro-peptide variant T15D] > 1.2 fold
